- System: EKVX
- experiment_summary: NCI tumour cell line growth inhibition, 48 h
The source made the active and inactive calls. No stated cut-off is given here; in the data, active = GI50 up to about 1.1 µM and inactive = higher.
// one of yes (1) = active, no (0) = inactive, no free text

Below are worked cases with known answers.
CC(=O)NC(CCCNC(=O)NCCCl)C(=O)NCc1ccccc1 (configuration not stated) :: no (0)
OCCCCCNc1ccnc2cc(Cl)ccc12 :: no (0)
COC(=O)C(=O)C(C(=O)C(=O)Nc1ccc([N+](=O)[O-])cc1C#N)c1nc2ccc([N+](=O)[O-])cc2nc1O (configuration not stated) :: no (0)
COC1C=C(Nc2cccc(Cl)c2)C(=O)C1 (configuration not stated) :: no (0)
Nc1nn2c(nc(N)c3c(N)n[nH]c32)c1/N=N\c1ccc(Br)cc1 :: no (0)

Tell me the assay call for Cc1ccc2ccc(-c3ccccc3)c3c2c1C(=O)c1ccccc1C3=O please. no (0)

COc1ccc(Nc2ccc3ccccc3c2-c2c(O)ccc3ccccc23)cc1 , same question. no (0)

What about this molecule? CN(C)c1ccc(C2ON=C(c3ccccc3)N2C23CC4CC(CC(C4)C2)C3)cc1 (configuration not stated) no (0)

Note, next up: O=C1c2cccc3cc([N+](=O)[O-])cc(c23)C(=O)N1Nc1ccc([N+](=O)[O-])cc1[N+](=O)[O-] no (0)

And the next one, Cn1c(=N)n[n+]([O-])c2ccccc21 ? no (0)

How about CCO[C@@]12CCC3CC4CC[C@@](OCC)(O1)C4C32 (some centres not stated) ? no (0)

CCN1/C(=C/c2ccc3ccccc3[n+]2CC)C=Cc2ccccc21 , same question. no (0)

// repeat for CCCn1c(SCCSc2c3ccccc3c(-c3nc(F)nc(F)n3)n2CCC)c2ccccc2c1-c1nc(F)nc(F)n1 and report no (0)

Would you mind doing COC(=O)C12C3C4C5(C(=O)OC)C(C1C35C(=O)N(C(C)C)C(C)C)C42C(=O)N(C(C)C)C(C)C (configuration not stated) as well? no (0)

What about CN(CCSCCN(C)C(=O)OC(C)(C)C)C(=O)OC(C)(C)C ? no (0)

Also need COC1C(O)C(C)OC(O[C@H]2CC[C@@]3(C)C(CC[C@@H]4[C@@H]3CC[C@]3(C)[C@@H](C(C)OC5OC(CO)C(O)C(O)C5O)CC[C@]43O)C2)C1O (some centres not stated) , thanks. no (0)

Let us now turn to Nc1ccccc1C(=O)NC(=O)Nc1ccc(Oc2ncc(Br)cn2)c(Cl)c1 yes (1)

----------
Listing: GI50 of selected compounds
- System: U-251
- experiment_summary: NCI tumour cell line growth inhibition, 48 h
Active and inactive are the calls of the source. Cut-off read from the data, not from the text of the source: active = GI50 up to about 1.1 µM and inactive = higher.

CC1=C(C(=O)CC(=O)C(=O)Nc2ccccc2C(F)(F)F)Sc2ccccc2N1 :: 64.9 µM (inactive)
COc1cc2c(cc1OC)C(=O)/C(=C/c1ccc(Cl)cc1)CC2 :: > 10 µM (inactive)
O=C1C2C3C=CC(C2C(=O)N1COP(=O)(O)O)C1C2C(=O)N(COP(=O)(O)O)C(=O)C2C31 (centres undefined) :: > 70.5 µM (inactive)

Entry CC(=O)NNc1nc(C)c(C(=O)NNC(=O)C(=O)Nc2nc3ccc([N+](=O)[O-])cc3s2)s1 : reported GI50 = ? 47.5 µM (inactive)

Next entry: N=C(N)c1ccc(/C=C/c2ccc(C(=N)N)cc2)cc1 33.5 µM (inactive)

Also need O=C1C[C@@H]2[C@@H](c3ccccc3)[C@@H]3C(=O)c4ccccc4NC(=O)[C@H]3[C@]2(O)c2ccccc2N1 , thanks. > 100 µM (inactive)

Query CNC(=S)Nc1ccc(OC)c2ccccc12 next > 10 µM (inactive)

Moving on to O=[N+]([O-])c1ccc(N2N=C(c3ccc4ccccc4c3O)CC2c2ccc(Cl)cc2)c([N+](=O)[O-])c1 (centres undefined) 25.9 µM (inactive)

Proceed to Nc1ccc(C(=O)N/C(=C\c2cccc([N+](=O)[O-])c2)c2nc3c(O)nc(S)nc3[nH]2)cc1 42.7 µM (inactive)
